Assignment: determine reported cell viability for the given molecules.
test system: P12-Ichikawa; assay: cell viability relative to DMSO control; higher = less cytotoxic; conditions: RPMI 5 mM glucose + 10% dialyzed FBS; 48 h; 0.19 µM
Please state the value followed by its unit.

Reported cell viability for Cc1ccc(C(=O)c2cc(O)c(O)c([N+](=O)[O-])c2)cc1 was 93.6%

Reported cell viability for COc1ccc2c(c1OC)CN1CCc3cc4c(cc3C1C2)OCO4 (centres undefined) was 83.2%

Reported cell viability for CO[C@@H]1C(N(C)C(=O)c2ccccc2)C[C@H]2O[C@]1(C)n1c3ccccc3c3c4c(c5c6ccccc6n2c5c31)C(=O)NC4=O (some centres undefined) was 90.1%

Reported cell viability for CC(=O)[C@H]1CC[C@H]2[C@@H]3CCC4=CC(=O)CC[C@]4(C)[C@H]3CC[C@]12C was 125%

Reported cell viability for C[C@@H]1CC[C@@]2(OC1)OC1CC3C4CC=C5CC(O)CCC5(C)C4CCC3(C)C1[C@@H]2C (some centres undefined) was 106%

Reported cell viability for COC1(C[S+]([O-])c2ccccc2)CCN(CCc2c[nH]c3ccc(F)cc23)CC1 (centres undefined) was 105%

Reported cell viability for CC(C)[C@H](CO)Nc1nc(Nc2cccc(Cl)c2)c2ncn(C(C)C)c2n1 was 106%

Reported cell viability for C#C[C@]1(O)CC[C@H]2[C@@H]3CCc4cc(OC)ccc4[C@H]3CC[C@@]21C was 111%

Reported cell viability for Nc1nc(OCc2ccccc2)c2nc[nH]c2n1 was 117%

###

Assignment: determine reported cell viability for the given compounds.
system: NOMO1; experiment: cell viability relative to DMSO control; higher = less cytotoxic; conditions: HPLM + 10% dialyzed FBS; 48 h; 0.0632 µM
Give the value, in units of %, as a plain number.

Reported cell viability for Cc1ccc(-c2ncn(-c3ccc(Nc4nccc(-c5cccc(N6CCOCC6)c5)n4)cc3)n2)cn1 was 105

Reported cell viability for NC(=O)c1cccc(N)c1 was 135

Reported cell viability for OC(COC1=C2C(=O)\C=C(/OC2=CC=C1)C([O-])=O)COC3=C4C(=O)\C=C(/OC4=CC=C3)C([O-])=O was 94.8

Reported cell viability for COc1cc(N[S+](=O)([O-])c2ccc(N)cc2)nc(OC)n1 was 109

Reported cell viability for CC(C)(C)NC(=O)[C@H]1CC[C@H]2[C@@H]3CC[C@H]4NC(=O)\C=C/[C@]4(C)[C@H]3CC[C@]12C was 107

Reported cell viability for CN(C)c1ccc2cc(C(=O)N[C@@H](CCCNC(=N)CCl)C(=O)NCc3ccccc3)ccc2c1 was 125

Reported cell viability for C[C@@H]1CC[C@@]2(OC1)OC1CC3C4CC=C5CC(O)CCC5(C)C4CCC3(C)C1[C@@H]2C (some centres not stated) was 113

Reported cell viability for CN(C)C[C@@H]1CC[N]2C=C(C3=C2C=CC=C3)C/4=C(/C(=O)NC4=O)C5=C[N](CCO1)C6=C5C=CC=C6 was 102

Reported cell viability for OCCCNc1cc(-c2ccnc(Nc3cccc(Cl)c3)n2)ccn1 was 114

Reported cell viability for CC(=O)[C@H]1CC[C@H]2[C@@H]3CCC4=CC(=O)CC[C@]4(C)[C@H]3CC[C@]12C was 127

Reported cell viability for CC(C)(C)NC(=O)[C@@H]1CN(Cc2cccnc2)CCN1C[C@@H](O)C[C@@H](Cc1ccccc1)C(=O)N[C@H]1c2ccccc2C[C@H]1O.O=S(=O)(O)O was 117

Reported cell viability for CCNc1cc(NC2CCC(O)CC2)nc(Nc2ccc3c(ccn3Cc3ccccc3)c2)n1 (configuration not stated) was 147

Reported cell viability for CC(C)(C)c1cc(C(=O)O)c(NC(=O)Nc2ccc3[nH]ncc3c2)s1 was 91.1

Reported cell viability for CNCC(O)C(O)C(O)C(O)CO.O=C(O)c1ccc(-c2cc3cccnc3c(-c3ccc4nonc4c3)n2)cc1 was 121

Reported cell viability for Cc1ccc(C(=O)c2cc(O)c(O)c([N+](=O)[O-])c2)cc1 was 116

Reported cell viability for COc1ccc2c(c1OC)CN1CCc3cc4c(cc3C1C2)OCO4 (configuration not stated) was 109

Reported cell viability for COC[C@H]1OC(=O)C2=COC3=C2[C@@]1(C)\C4=C(\[C@@H]5CC[C@H](O)[C@@]5(C)C[C@H]4OC(C)=O)C3=O was 132

Reported cell viability for Cc1cc(Cl)ccc1OCCCC(=O)NO was 110

Reported cell viability for CCNC(=O)[C@H]1O[C@@H](n2cnc3c(N)nc(NCCc4ccc(CCC(=O)O)cc4)nc32)[C@H](O)[C@@H]1O was 95.7

Reported cell viability for N\C1=N\C2=C(N=C[N]2COC(CO)CO)C(=O)N1 was 131

Reported cell viability for O=[N+]([O-])c1cnc(Sc2nnc(O)n2-c2ccc3c(c2)OCCO3)s1 was 96.4

Reported cell viability for CO[C@H]1C[C@@H]2CC[C@@H](C)[C@@](O)(O2)C(=O)C(=O)N2CCCC[C@H]2C(=O)O[C@H]([C@H](C)C[C@@H]2CC[C@@H](OCCO)[C@H](OC)C2)CC(=O)[C@H](C)/C=C(/C)[C@@H](O)[C@@H](OC)C(=O)[C@H](C)C[C@H](C)\C=C/C=C\C=C/1C was 81.7
